test: recombinant UMI read abundance after kanamycin selection (control-corrected) (log10(CPM+1)); higher = more efficient recombination; extreme values may be limits of the assay; sequences stand for … in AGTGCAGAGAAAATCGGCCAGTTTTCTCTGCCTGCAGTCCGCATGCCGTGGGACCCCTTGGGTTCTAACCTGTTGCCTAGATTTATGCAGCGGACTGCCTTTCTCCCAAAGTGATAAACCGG…AGGTTGGTTTCACT; site = the 11-nt donor;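 further: IS621 bridge recombinase in Escherichia coli cells against a fixed T5 target plasmid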
observed.property: recombinant UMI read abundance (log10)

- ACACCTCCATGGACCGGTTTTCCCGGTAATCCGTATTTGAC (site ACACCTCCTGT): 1.93
- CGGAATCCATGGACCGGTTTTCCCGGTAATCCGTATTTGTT (site CGGAAACCTAG): 0.112
- ATTTATACATGGACCGGTTTTCCCGGTAATCCGTATTTGAC (site ATCTATACTGT): 1.22
- CCCCCCACATGGACCGGTTTTCCCGGTAATCCGTATTTGTA (site CCCCTCACTTA): 0.00445
- GAATGGCCATGGACCGGTTTTCCCGGTAATCCGTATTTGCA (site GAATGGCCTAG): 0

###

experiment: recombinant UMI read abundance after kanamycin selection (control-corrected) (log10(CPM+1)); higher = more efficient recombination; extreme values may be limits of the assay; sequences stand for … in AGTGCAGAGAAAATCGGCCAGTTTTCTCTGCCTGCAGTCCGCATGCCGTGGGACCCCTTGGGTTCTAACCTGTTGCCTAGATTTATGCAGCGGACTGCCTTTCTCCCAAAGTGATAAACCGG…AGGTTGGTTTCACT; site = the 11-nt donor
Each item that follows carries a reported recombinant UMI read abundance (log10).
observed.property: recombinant UMI read abundance (log10)

- AACCGTACATGGACCGGTTTTCCCGGTAATCCGTATTTGAT (site AACCGTTCTAT): 0
- ACAATGGCATGGACCGGTTTTCCCGGTAATCCGTATTTGAT (site ACAATGGCTAT): 2.3
- ATCCTAGCATGGACCGGTTTTCCCGGTAATCCGTATTTGTT (site ACCCTAGCTAA): 0.0137
- GTGTACCCATGGACCGGTTTTCCCGGTAATCCGTATTTGGC (site GTGTACCCTGC): 0.705
- CTCCCTACATGGACCGGTTTTCCCGGTAATCCGTATTTGTG (site CTCCCTACTCG): 0.143
- CCTAATACATGGACCGGTTTTCCCGGTAATCCGTATTTGTC (site CCTAATACTGG): 0
- GTTAGACCATGGACCGGTTTTCCCGGTAATCCGTATTTGGC (site GTTAGATCTGC): 0
- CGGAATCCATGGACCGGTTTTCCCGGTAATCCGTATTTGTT (site CGAGATCCTAA): 0
- TCAGATACATGGACCGGTTTTCCCGGTAATCCGTATTTGCG (site TCAGACACTCG): 0.812
- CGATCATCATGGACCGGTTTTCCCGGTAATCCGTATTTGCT (site CGGGCATCTAG): 0
- AGCTTTTCATGGACCGGTTTTCCCGGTAATCCGTATTTGAC (site AGCATTTCTGT): 0
- GACCTCACATGGACCGGTTTTCCCGGTAATCCGTATTTGAT (site GAGCTCACTAT): 0
- CCAGCTGCATGGACCGGTTTTCCCGGTAATCCGTATTTGCC (site CCAGCTGCTGG): 1.26
- TGTACCCCATGGACCGGTTTTCCCGGTAATCCGTATTTGTA (site TGTCCCCCTTA): 0.253
- CAACAGGCATGGACCGGTTTTCCCGGTAATCCGTATTTGTA (site CAACAGGCTTA): 1.18
- ACAAGGCCATGGACCGGTTTTCCCGGTAATCCGTATTTGAC (site ATAAGGCCTGT): 1.34
- AAAGCGCCATGGACCGGTTTTCCCGGTAATCCGTATTTGTG (site TAAGCGCCTCA): 0.019
- CGAGGACCATGGACCGGTTTTCCCGGTAATCCGTATTTGCG (site CGAGGACCTCC): 0.00697
